Reference source: ChEMBL document CHEMBL5058564

system: HEK-293T; assay: Incucyte cell viability with HEK293T; assay type: toxicity, cell-based; conditions: human, 6 h, 10 µM, compound concentration 10 uM, replicate number 2, timepoint 6 hours; note: unitless GR value; below 1 slowed growth and below 0 cell loss
property: Growth Rate
// return just the number, without any unit appended

Task item: Would you kindly share the measured Growth Rate for "CC(C)(C)c1ccc(CSc2cnn(C(C)(C)C)c(=O)c2Cl)cc1" ?
Reply: -0.1

Task item: Look up Growth Rate for this compound: "CNC(=O)c1nn(C)c2c1C(C)(C)Cc1cnc(Nc3ccc(N4CCN(C)CC4)cc3)nc1-2"
Reply: -0.72

Task item: May I ask what Growth Rate has been recorded for "COc1cc(Nc2nc(C)cc(-c3cnn4nc(OC)ccc34)n2)cc(C(F)(F)F)c1" ?
Reply: 0.89

Task item: Which measured Growth Rate value corresponds to "c1cc(OCCCN2CCCCC2)ccc1CN1CCCCC1" ?
Reply: 0.82

Task item: # Growth Rate lookup, item "COc1cc2nc(N3CCN(C(=O)COc4c(OC)cccc4C(C)C)CC3)nc(N)c2cc1OC.Cl.Cl"
Reply: 0.9

----------
tested on: U2OS; test: Incucyte cell viability with U2OS; assay type: toxicity, cell-based; settings: human, 6 h, 10 µM, compound concentration 10 uM, replicate number 2, timepoint 6 hours; note: unitless GR value; below 1 slowed growth and below 0 cell loss
// returns Not met unless Growth Rate is strictly below 0.8, in which case Met

Some solved cases for reference:
CC(C)[C@H](C(=O)Nc1ccc(C(=O)NO)cc1)c1ccccc1 | Not met
O=C(NCC(=O)N1CC[C@H](N[C@H]2CC[C@@](O)(c3ccc(-c4ncccn4)cn3)CC2)C1)c1cccc(C(F)(F)F)c1 | Met
CN1CCN2c3ccccc3Cc3ccccc3C2C1.Cl (centres undefined) [MIANSERIN HYDROCHLORIDE] | Not met
Cc1nnc2n1-c1sc(CCC(=O)N3CCOCC3)cc1C(c1ccccc1Cl)=NC2 | Met
Cc1cc(O)c(-c2ccc([C@@H](C)CN(C)C)cc2)c2c1[nH]c(=O)c1sccc12 | Met

Task item: Determine if "O=C1NCc2ccc3c(-c4cccc(Cl)c4)c[nH]c3c21" shows Growth Rate strictly lower than 0.8.
Reply: Met

Task item: Does "CN(C)CCn1cc(S(=O)(=O)c2cccc(F)c2)c2cccnc21.Cl.Cl" have Growth Rate strictly under 0.8?
Reply: Met

Task item: API: query returns whether the molecule falls strictly under 0.8 in Growth Rate. Query: "OC[C@H]1O[C@@H](n2cnc3c(NC4CCCC4)ncnc32)[C@H](O)[C@@H]1O"
Reply: Met

----------
tested on: U2OS; experiment: Incucyte cell viability with U2OS; type: toxicity, cell-based; conditions: human, 18 h, 10 µM, compound concentration 10 uM, replicate number 2, timepoint 18 hours; note: unitless GR value; below 1 slowed growth and below 0 cell loss
property: Growth Rate
Enter the number alone.

CCOC(=O)Nc1cc(-c2ccc(C)c(NS(C)(=O)=O)c2)nn2c(C)nnc12 | 0.95
Cc1ccc(Cn2nc(C(=O)N[C@@H]3C(C)(C)[C@@H]4CC[C@@]3(C)C4)cc2-c2ccc(Cl)c(C)c2)cc1 | 0.82

Task item: Which value of Growth Rate has been reported for "C[C@H](NC(=O)CNC(=O)c1cccc(Cl)c1)c1ccccc1" in the records?
Reply: 0.91

Task item: Could you share which Growth Rate value was measured for "N[C@@H]1c2cccnc2[C@H](OC(=O)N2CCC(n3c(=O)[nH]c4ncccc43)CC2)CC[C@H]1c1cccc(F)c1F" ?
Reply: 0.96

----------
tested on: HEK-293T; experiment: Incucyte cell viability with HEK293T; type: toxicity, cell-based; details: human, 18 h, 10 µM, compound concentration 10 uM, replicate number 1, timepoint 18 hours; note: unitless GR value; below 1 slowed growth and below 0 cell loss
hey, just use rule met if measured Growth Rate is less than 0.7, otherwise rule not met

CCC(=O)N1CC[C@H](Nc2ncnc3c2CN(c2cnc(OC)c(C(F)(F)F)c2)CC3)C1 | rule not met
Cc1nc2ccc(Oc3ccc(F)cc3)cc2c(=O)n1C[C@H]1CCCN(C(C)C)C1.Cl | rule met
CN1CCC(C(=O)c2cccc(NC(=O)c3c(F)cc(F)cc3F)n2)CC1 | rule not met
CCOC(=O)Nc1cc(-c2ccc(C)c(NS(C)(=O)=O)c2)nn2c(C)nnc12 | rule not met
CN(C)C(=O)Cn1cc(-c2ccc(-c3nnc4ccccn34)cc2)cn1 | rule not met
CCOC(=O)N[C@@H]1CC[C@@H]2[C@@H](C1)C[C@H]1C(=O)O[C@H](C)[C@H]1[C@H]2/C=C/c1ccc(-c2cccc(F)c2)cn1 | rule met
CC(=O)Nc1cccc2c1c(Sc1ccc(Cl)cc1)c(C)n2CC(=O)O | rule not met
Cc1cc(C)cc([C@@H]2c3cc(C)ccc3NC(=O)CN2C(=O)c2ccc(Br)s2)c1 | rule met
O=C1[C@H](Cc2ccc(O)cc2)N2C(=O)CCN(C(=O)NCc3ccccc3)[C@H]2CN1Cc1cccc2ccccc12 | rule met
O=C(CCCc1ccccc1)Nc1nc2ccccc2c(=O)s1 | rule met

Task item: # check: Growth Rate < 0.7 for "Cc1ccc(Cn2nc(C(=O)N[C@@H]3C(C)(C)[C@@H]4CC[C@@]3(C)C4)cc2-c2ccc(Cl)c(C)c2)cc1"
Reply: rule not met

Task item: Find out if reported Growth Rate for "NC[C@H](O)c1ccc(O)c(O)c1.O.O=C(O)C(O)C(O)C(=O)O" is less than 0.7
Reply: rule not met

Task item: Hello, is Growth Rate of the following molecule strictly smaller than 0.7? OCc1cc(C(O)CNCCCCCCOCCCCc2ccccc2)ccc1O (stereo unspecified)
Reply: rule not met

Task item: Please determine if "CC#C[C@@H](CC(=O)O)c1ccc(OCc2cccc(-c3ccc(C(F)(F)F)cc3)c2)cc1" is below 0.7 in terms of Growth Rate.
Reply: rule met

Task item: Quick check: does O=C(NCCN1CCC(n2c(=O)[nH]c3cc(Cl)ccc32)CC1)c1ccc(F)cc1 [HALOPEMIDE] have Growth Rate under 0.7?
Reply: rule met

----------
test system: U2OS; assay: Incucyte cell viability with U2OS; assay type: toxicity, cell-based; conditions: human, 18 h, 10 µM, compound concentration 10 uM, replicate number 1, timepoint 18 hours; note: unitless GR value; below 1 slowed growth and below 0 cell loss
Entries are sorted into classes by Growth Rate as follows: lower segment: < 0.6; middle segment: ≥ 0.6 and < 0.8; upper segment: ≥ 0.8

COc1ccc2nc3ccc(OC)cc3c(SCCCN)c2c1.Cl | lower segment
O=C1[C@H](Cc2ccc(O)cc2)N2C(=O)CCN(C(=O)NCc3ccccc3)[C@H]2CN1Cc1cccc2ccccc12 | lower segment
COc1ncc2cc(C(=O)Nc3cc(C(=O)NCc4cccc(Cl)c4)ccc3Cl)c(=O)[nH]c2n1 | lower segment
CCCCOCCOc1nc(-c2ccc(C(=O)O)c(F)c2)sc1C | upper segment
CC(C)n1cc(-c2ccc(N3CCN(C)CC3)c(NC(=O)c3ccc(-c4ccncc4)o3)c2)cn1 | upper segment

Task item: Input Cc1ccccc1C(=O)Nc1ccc(C(=O)N2CCCC(N(C)C)c3ccccc32)cc1.Cl (centres undefined) ; output its category
Reply: lower segment

Task item: Textbook exercise: identify the category of the compound given here, COC[C@@H](c1ccc(C(F)(F)F)cc1)N1CCN(C2(C)CCN(C(=O)c3c(C)ncnc3C)CC2)C[C@@H]1C.O=C(O)/C=C\C(=O)O [VICRIVIROC MALEATE] , according to its measured value.
Reply: middle segment

Task item: Class for "CC(=O)c1ccc2c(c1)[C@@H]1C=CC[C@@H]1[C@H](c1cc3c(cc1Br)OCO3)N2" ?
Reply: lower segment

Task item: State the band of "Cc1[nH]cnc1CN1CCc2c(c3ccccc3n2C)C1=O"
Reply: upper segment

Task item: Hi, small favor: classify "O=C(NC[C@@H]1[C@H]2CN(C(=O)OCc3cc(C(F)(F)F)cc(C(F)(F)F)c3)C[C@@H]12)c1ccc2[nH]nnc2c1" by its Growth Rate when you get a moment.
Reply: upper segment

Task item: Pick a category. Item: "O=C(NCCO)c1cccc(-c2cc(Nc3ccc(OC(F)(F)F)cc3)ncn2)c1"
Reply: lower segment

Task item: Which bin, given its Growth Rate, does CSc1ccccc1N1CCN(CCCCCC(=O)NC2CCCc3ccccc32)CC1.Cl (centres undefined) occupy?
Reply: lower segment

Task item: Which class does "Nc1ncnc2c1ncn2[C@@H]1O[C@H](CO)[C@@H](O)[C@H]1O" fall in?
Reply: middle segment

Task item: Sort Cl.Clc1cccc(Cl)c1NC1=NCCN1 [CLONIDINE HYDROCHLORIDE] into one of the categories.
Reply: upper segment

Task item: Kindly identify the class of "CC(C)c1cc(-c2ccc(F)c3ccccc23)nc(N)n1" .
Reply: upper segment

----------
test system: U2OS; assay: Incucyte cell viability with U2OS; type: toxicity, cell-based; details: human, 18 h, 10 µM, compound concentration 10 uM, replicate number 2, timepoint 18 hours; note: unitless GR value; below 1 slowed growth and below 0 cell loss
property: Growth Rate
// keep it numeric: no unit symbol after the value

Solved entries:
Cc1nn(C)c(C)c1-c1cccc2c1CC[C@H](N(C)C)C2 | 0.97
COc1cc(C(=O)N2CC[C@@H](O)[C@@H](N)C2)cc2nc(-c3cc4ccccc4n3CC3CC3)n(C)c12.Cl | 0.99
O=C(N[C@@H]1CC[C@@H](c2cccc(F)c2F)CN(CC(F)(F)F)C1=O)N1CCC(n2c(=O)[nH]c3ncccc32)CC1 | 0.98
Cc1ccccc1C#Cc1ccc(CCC(=O)O)cc1 | 0.92
N[C@@]1(C(=O)O)CO[C@H]2[C@H](C(=O)O)[C@H]21 | 0.92
CC#C[C@@H](CC(=O)O)c1ccc(OCc2cccc(-c3ccc(C(F)(F)F)cc3)c2)cc1 | 0.96

Task item: Fill in the recorded Growth Rate for this molecule, with U2OS as test system: "Cc1cc(C)cc([C@H]2c3cc(C)ccc3NC(=O)CN2C(=O)c2ccc(Br)s2)c1"
Reply: 0.88

Task item: Lab note: need Growth Rate for COCCCN1CCC(NC(=O)c2cc(Cl)c(N)c3c2OCC3)CC1 [PRUCALOPRIDE] on U2OS, anyone have it?
Reply: 0.98

Task item: What Growth Rate appears in the records for this molecule with U2OS? "O=C(O)c1ccccc1S(=O)(=O)NCCCCN1C(=O)c2cccc3cccc(c23)C1=O"
Reply: 0.75
